TARGET OR TEST SYSTEM: HPA (Homo sapiens, UniProt P04746)
Sequence (P04746 16-511): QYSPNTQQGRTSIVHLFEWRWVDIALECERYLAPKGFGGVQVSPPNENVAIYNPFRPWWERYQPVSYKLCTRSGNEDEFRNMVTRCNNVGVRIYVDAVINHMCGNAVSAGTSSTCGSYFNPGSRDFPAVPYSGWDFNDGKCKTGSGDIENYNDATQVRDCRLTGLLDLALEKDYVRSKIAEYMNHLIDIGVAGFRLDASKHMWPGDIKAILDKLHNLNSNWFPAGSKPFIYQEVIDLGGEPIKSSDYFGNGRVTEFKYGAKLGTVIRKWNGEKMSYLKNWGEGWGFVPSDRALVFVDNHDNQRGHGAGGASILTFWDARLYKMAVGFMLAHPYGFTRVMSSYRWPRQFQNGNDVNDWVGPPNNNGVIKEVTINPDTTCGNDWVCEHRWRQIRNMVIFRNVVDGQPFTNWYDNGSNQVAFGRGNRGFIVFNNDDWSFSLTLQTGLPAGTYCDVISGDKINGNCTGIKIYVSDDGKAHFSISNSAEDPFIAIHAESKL
EXPERIMENT NOTES: Binding mode (distribution of hydrolysis products) by HPLC
Assay type: biochemical
RUN CONDITIONS: share of product GP
Listed below: Hydrolysis product GP values for each entry.
State the answer as a number, implicitly in %.

Worked examples follow.
{"COMPOUND": "O=[N+]([O-])c1ccc(O[C@H]2O[C@H](CO)[C@@H](O[C@H]3O[C@H](CO)[C@@H](O[C@H]4O[C@H](CO)[C@@H](O[C@H]5O[C@H](CO)[C@@H](O[C@H]6O[C@H](CO)[C@@H](O)[C@H](O)[C@H]6O)[C@H](O)[C@H]5O)[C@H](O)[C@H]4O)[C@H](O)[C@H]3O)[C@H](O)[C@H]2O)cc1 [Substrate G5P]", "TARGET OR TEST SYSTEM": "HPA (Homo sapiens, UniProt P04746)", "RECORDED VALUE": 15}
{"COMPOUND": "O=[N+]([O-])c1ccc(O[C@H]2O[C@H](CO)[C@@H](O[C@H]3O[C@H](CO)[C@@H](O[C@H]4O[C@H](CO)[C@@H](O[C@H]5O[C@H](CO)[C@@H](O[C@H]6O[C@H](CO)[C@@H](O[C@H]7O[C@H](CO)[C@@H](O[C@H]8O[C@@H]9COC(c%10ccccc%10)O[C@H]9[C@H](O)[C@H]8O)[C@H](O)[C@H]7O)[C@H](O)[C@H]6O)[C@H](O)[C@H]5O)[C@H](O)[C@H]4O)[C@H](O)[C@H]3O)[C@H](O)[C@H]2O)cc1 (stereo partly drawn) [BDG7P]", "TARGET OR TEST SYSTEM": "HPA (Homo sapiens, UniProt P04746)", "RECORDED VALUE": 7}

Shifting focus to the compound that follows.
Name the reported Hydrolysis product GP value associated with the compound O=[N+]([O-])c1ccc(O[C@H]2O[C@H](CO)[C@@H](O[C@H]3O[C@H](CO)[C@@H](O[C@H]4O[C@H](CO)[C@@H](O[C@H]5O[C@H](CO)[C@@H](O[C@H]6O[C@H](CO)[C@@H](O[C@H]7O[C@H](CO)[C@@H](O[C@H]8O[C@H](COCc9ccccc9)[C@@H](O)[C@H](O)[C@H]8O)[C@H](O)[C@H]7O)[C@H](O)[C@H]6O)[C@H](O)[C@H]5O)[C@H](O)[C@H]4O)[C@H](O)[C@H]3O)[C@H](O)[C@H]2O)cc1 [BG7P]
2

Cited source: patent EP0252525B1
